Target: Tyrosyl-tRNA synthetase, putative (Trypanosoma cruzi (strain CL Brener)) (UniProt Q4DSP6)
Sequence (Q4DSP6 as listed by the source): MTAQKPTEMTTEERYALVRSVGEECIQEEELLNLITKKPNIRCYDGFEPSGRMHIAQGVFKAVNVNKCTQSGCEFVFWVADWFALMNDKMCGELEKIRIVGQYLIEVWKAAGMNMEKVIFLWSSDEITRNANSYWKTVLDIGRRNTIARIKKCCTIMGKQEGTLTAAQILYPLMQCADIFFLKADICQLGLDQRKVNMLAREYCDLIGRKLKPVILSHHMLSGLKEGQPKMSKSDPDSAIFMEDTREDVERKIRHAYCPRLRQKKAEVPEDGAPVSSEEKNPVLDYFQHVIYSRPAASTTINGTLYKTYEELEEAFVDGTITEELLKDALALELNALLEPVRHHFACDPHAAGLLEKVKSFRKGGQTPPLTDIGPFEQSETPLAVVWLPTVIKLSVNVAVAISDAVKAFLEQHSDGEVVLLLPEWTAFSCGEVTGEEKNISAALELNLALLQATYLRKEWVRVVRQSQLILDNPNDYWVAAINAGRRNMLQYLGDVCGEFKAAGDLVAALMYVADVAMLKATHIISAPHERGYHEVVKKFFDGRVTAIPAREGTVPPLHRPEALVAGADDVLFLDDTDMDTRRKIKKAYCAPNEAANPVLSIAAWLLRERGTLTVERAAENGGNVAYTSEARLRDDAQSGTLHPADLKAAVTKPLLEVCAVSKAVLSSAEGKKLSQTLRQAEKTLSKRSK
Assay: Trypanosoma cruzi tyrosyl tRNA synthetase (TcYRS) SOP
Format: functional
Set-up: scale not given: direction of the effect not stated beside the values
Details: 30 µM
Percent Effect less than 10% is 1.0; Percent Effect greater than or equal to 10% is 0.0.

- compound: "COc1cc(C(=O)N(Cc2ccc(F)cc2)C2CC2)cc2c1OCCO2"
  target.desc: "Tyrosyl-tRNA synthetase, putative (Trypanosoma cruzi (strain CL Brener)) (UniProt Q4DSP6)"
  class.name: 0.0
- compound: "Cn1cc(-c2csc(N3CCN(C(=O)OC(C)(C)C)CC3)n2)cn1"
  target.desc: "Tyrosyl-tRNA synthetase, putative (Trypanosoma cruzi (strain CL Brener)) (UniProt Q4DSP6)"
  class.name: 0.0
- compound: "O=C(CCNC(=O)c1ccoc1)Nc1c(F)cccc1F"
  target.desc: "Tyrosyl-tRNA synthetase, putative (Trypanosoma cruzi (strain CL Brener)) (UniProt Q4DSP6)"
  class.name: 0.0
- compound: "CC(C)(C)C(=O)NS(=O)(=O)c1ccc(C#N)cc1C(F)(F)F"
  target.desc: "Tyrosyl-tRNA synthetase, putative (Trypanosoma cruzi (strain CL Brener)) (UniProt Q4DSP6)"
  class.name: 0.0
- compound: "Cc1nnc(N2CCC(CN(C)C(C)C)CC2)c(C#N)c1C"
  target.desc: "Tyrosyl-tRNA synthetase, putative (Trypanosoma cruzi (strain CL Brener)) (UniProt Q4DSP6)"
  class.name: 0.0
- compound: "COC(=O)c1sccc1S(=O)(=O)N1CCC(Oc2ncccc2Cl)CC1"
  target.desc: "Tyrosyl-tRNA synthetase, putative (Trypanosoma cruzi (strain CL Brener)) (UniProt Q4DSP6)"
  class.name: 1.0
- compound: "COC(=O)c1ccc(C(=O)NS(=O)(=O)c2cncc(Br)c2)cc1"
  target.desc: "Tyrosyl-tRNA synthetase, putative (Trypanosoma cruzi (strain CL Brener)) (UniProt Q4DSP6)"
  class.name: 1.0
- compound: "CCOCCCNc1nc(O)cc(C2CC(=O)N(C)C2)n1 (stereo not drawn)"
  target.desc: "Tyrosyl-tRNA synthetase, putative (Trypanosoma cruzi (strain CL Brener)) (UniProt Q4DSP6)"
  class.name: 1.0
- compound: "O=C(c1ccccc1-n1cccn1)N1CCCN(c2cccnn2)CC1"
  target.desc: "Tyrosyl-tRNA synthetase, putative (Trypanosoma cruzi (strain CL Brener)) (UniProt Q4DSP6)"
  class.name: 1.0
- compound: "O=C(CN1CCCC1Cn1cncn1)NCCc1c(F)cccc1F (stereo not drawn)"
  target.desc: "Tyrosyl-tRNA synthetase, putative (Trypanosoma cruzi (strain CL Brener)) (UniProt Q4DSP6)"
  class.name: 0.0
- compound: "CS(=O)(=O)N1CCCN(C(=O)c2ccc(Cn3ccccc3=O)o2)CC1"
  target.desc: "Tyrosyl-tRNA synthetase, putative (Trypanosoma cruzi (strain CL Brener)) (UniProt Q4DSP6)"
  class.name: 0.0
- compound: "COCCOc1ccc(NC(=O)N2CCCC2c2cc(C)no2)cn1 (stereo not drawn)"
  target.desc: "Tyrosyl-tRNA synthetase, putative (Trypanosoma cruzi (strain CL Brener)) (UniProt Q4DSP6)"
  class.name: 1.0
- compound: "Cc1nc(CNC(=O)Cn2nc(-c3ccc(F)cc3)oc2=O)cs1"
  target.desc: "Tyrosyl-tRNA synthetase, putative (Trypanosoma cruzi (strain CL Brener)) (UniProt Q4DSP6)"
  class.name: 0.0
- compound: "CCc1cnc(CN(C(C)=O)C2CCN(CCc3cccs3)C2)o1 (stereo not drawn)"
  target.desc: "Tyrosyl-tRNA synthetase, putative (Trypanosoma cruzi (strain CL Brener)) (UniProt Q4DSP6)"
  class.name: 1.0
- compound: "O=C(CCc1nc2cccnc2[nH]1)NCc1ccc2c(c1)OCO2"
  target.desc: "Tyrosyl-tRNA synthetase, putative (Trypanosoma cruzi (strain CL Brener)) (UniProt Q4DSP6)"
  class.name: 0.0
- compound: "COc1ccccc1CNC(=O)Cn1ncc2c1c(C)nn2C"
  target.desc: "Tyrosyl-tRNA synthetase, putative (Trypanosoma cruzi (strain CL Brener)) (UniProt Q4DSP6)"
  class.name: 1.0
- compound: "CC(C)(C)c1n[nH]c(C2CN(C(=O)c3cc(Cl)c[nH]3)CCO2)n1 (stereo not drawn)"
  target.desc: "Tyrosyl-tRNA synthetase, putative (Trypanosoma cruzi (strain CL Brener)) (UniProt Q4DSP6)"
  class.name: 0.0
- compound: "COc1ccc(F)c(CN2CCC(c3cc(O)nc(C)n3)C2)c1 (stereo not drawn)"
  target.desc: "Tyrosyl-tRNA synthetase, putative (Trypanosoma cruzi (strain CL Brener)) (UniProt Q4DSP6)"
  class.name: 0.0
- compound: "COc1ccccc1[C@@H]1CN(Cc2cc(C(C)(C)C)[nH]n2)C[C@H]1C(=O)O"
  target.desc: "Tyrosyl-tRNA synthetase, putative (Trypanosoma cruzi (strain CL Brener)) (UniProt Q4DSP6)"
  class.name: 0.0
- compound: "Cc1c(C)n(-c2ccccn2)c2nc3c(c(N)c12)CCCC3"
  target.desc: "Tyrosyl-tRNA synthetase, putative (Trypanosoma cruzi (strain CL Brener)) (UniProt Q4DSP6)"
  class.name: 1.0
- compound: "Cc1ccn(-c2ccccc2NCc2cccnc2C)n1"
  target.desc: "Tyrosyl-tRNA synthetase, putative (Trypanosoma cruzi (strain CL Brener)) (UniProt Q4DSP6)"
  class.name: 1.0
- compound: "CCNC(=O)N(C)C(c1cccc(F)c1)c1ccccn1 (stereo not drawn)"
  target.desc: "Tyrosyl-tRNA synthetase, putative (Trypanosoma cruzi (strain CL Brener)) (UniProt Q4DSP6)"
  class.name: 0.0
- compound: "COc1ncccc1C(=O)NCC1Cc2ccccc2O1 (stereo not drawn)"
  target.desc: "Tyrosyl-tRNA synthetase, putative (Trypanosoma cruzi (strain CL Brener)) (UniProt Q4DSP6)"
  class.name: 0.0
- compound: "CN(C)C(CNS(=O)(=O)c1ccc(F)cc1F)c1cccn1C (stereo not drawn)"
  target.desc: "Tyrosyl-tRNA synthetase, putative (Trypanosoma cruzi (strain CL Brener)) (UniProt Q4DSP6)"
  class.name: 0.0
- compound: "COc1ccc(-c2csc(N)c2C#N)cc1OC"
  target.desc: "Tyrosyl-tRNA synthetase, putative (Trypanosoma cruzi (strain CL Brener)) (UniProt Q4DSP6)"
  class.name: 1.0
- compound: "CCc1ncc(C(=O)N2CCCCC2Cn2cccn2)s1 (stereo not drawn)"
  target.desc: "Tyrosyl-tRNA synthetase, putative (Trypanosoma cruzi (strain CL Brener)) (UniProt Q4DSP6)"
  class.name: 1.0
- compound: "CCc1cc(NCCNc2cccnc2)n2nccc2n1"
  target.desc: "Tyrosyl-tRNA synthetase, putative (Trypanosoma cruzi (strain CL Brener)) (UniProt Q4DSP6)"
  class.name: 1.0
- compound: "Cc1cc(O)c(OCC(=O)/N=c2\\[nH]cc(C)s2)cn1"
  target.desc: "Tyrosyl-tRNA synthetase, putative (Trypanosoma cruzi (strain CL Brener)) (UniProt Q4DSP6)"
  class.name: 0.0
- compound: "O=C(c1cncc(Br)c1)N1CCC(O)(Cn2ccc3ccncc32)CC1"
  target.desc: "Tyrosyl-tRNA synthetase, putative (Trypanosoma cruzi (strain CL Brener)) (UniProt Q4DSP6)"
  class.name: 1.0
- compound: "COc1c(CNC2CCN(C(C)(C)C)CC2)c(C(C)C)nn1C"
  target.desc: "Tyrosyl-tRNA synthetase, putative (Trypanosoma cruzi (strain CL Brener)) (UniProt Q4DSP6)"
  class.name: 0.0
- compound: "COc1ccc(NC(=O)N2CCCC2c2ccco2)cc1OC (stereo not drawn)"
  target.desc: "Tyrosyl-tRNA synthetase, putative (Trypanosoma cruzi (strain CL Brener)) (UniProt Q4DSP6)"
  class.name: 0.0
- compound: "CCn1c(CN(C)C)nnc1C1CCN(Cc2cccc(OC)c2)CC1"
  target.desc: "Tyrosyl-tRNA synthetase, putative (Trypanosoma cruzi (strain CL Brener)) (UniProt Q4DSP6)"
  class.name: 0.0
- compound: "CCc1ccc(C2CCCCCN2Cc2nc(CCOC)no2)o1 (stereo not drawn)"
  target.desc: "Tyrosyl-tRNA synthetase, putative (Trypanosoma cruzi (strain CL Brener)) (UniProt Q4DSP6)"
  class.name: 1.0
- compound: "OC[C@H]1CC[C@]2(CC1)CN(Cc1ccccc1F)Cc1ccccc1O2"
  target.desc: "Tyrosyl-tRNA synthetase, putative (Trypanosoma cruzi (strain CL Brener)) (UniProt Q4DSP6)"
  class.name: 0.0
- compound: "c1cnn(-c2ccc(CN3CCOC(Cn4cncn4)C3)cc2)c1 (stereo not drawn)"
  target.desc: "Tyrosyl-tRNA synthetase, putative (Trypanosoma cruzi (strain CL Brener)) (UniProt Q4DSP6)"
  class.name: 0.0
- compound: "O=C(c1ccc(F)c(F)c1)N1CCCC(Nc2ccc(F)cc2)C1 (stereo not drawn)"
  target.desc: "Tyrosyl-tRNA synthetase, putative (Trypanosoma cruzi (strain CL Brener)) (UniProt Q4DSP6)"
  class.name: 1.0
- compound: "Fc1ccc(CN2CCO[C@H]3[C@H](OCC4CC4)CC[C@@H]32)cc1"
  target.desc: "Tyrosyl-tRNA synthetase, putative (Trypanosoma cruzi (strain CL Brener)) (UniProt Q4DSP6)"
  class.name: 1.0
- compound: "Cn1c(CN2CCN(CC3CC3)CC2)nnc1C1CCC1"
  target.desc: "Tyrosyl-tRNA synthetase, putative (Trypanosoma cruzi (strain CL Brener)) (UniProt Q4DSP6)"
  class.name: 1.0
- compound: "Cc1ccc2c(c1)c(CNC(=O)C1CC(=O)N(C3CCCC3)C1)nn2C (stereo not drawn)"
  target.desc: "Tyrosyl-tRNA synthetase, putative (Trypanosoma cruzi (strain CL Brener)) (UniProt Q4DSP6)"
  class.name: 1.0
- compound: "O=C(NCCNc1ncccn1)N1CCN(Cc2cccnc2)CC1"
  target.desc: "Tyrosyl-tRNA synthetase, putative (Trypanosoma cruzi (strain CL Brener)) (UniProt Q4DSP6)"
  class.name: 0.0
- compound: "O=C(c1cccnc1)N1CCc2ncnc(C3CCOC3)c2CC1 (stereo not drawn)"
  target.desc: "Tyrosyl-tRNA synthetase, putative (Trypanosoma cruzi (strain CL Brener)) (UniProt Q4DSP6)"
  class.name: 0.0
- compound: "Cn1cnc2c1CCN(Cc1nc(Cc3ccccc3)no1)C2"
  target.desc: "Tyrosyl-tRNA synthetase, putative (Trypanosoma cruzi (strain CL Brener)) (UniProt Q4DSP6)"
  class.name: 1.0
- compound: "O=C(Cc1ccccn1)N1CCN(CC2CC2)c2ncccc2C1"
  target.desc: "Tyrosyl-tRNA synthetase, putative (Trypanosoma cruzi (strain CL Brener)) (UniProt Q4DSP6)"
  class.name: 0.0
- compound: "Cc1cc(C)c(CNC(=O)C2CCCN(c3cnccn3)C2)c(=O)[nH]1 (stereo not drawn)"
  target.desc: "Tyrosyl-tRNA synthetase, putative (Trypanosoma cruzi (strain CL Brener)) (UniProt Q4DSP6)"
  class.name: 1.0
- compound: "COCC1Cn2nnc(-c3cnn(C)c3)c2CN1Cc1ccc(C)s1 (stereo not drawn)"
  target.desc: "Tyrosyl-tRNA synthetase, putative (Trypanosoma cruzi (strain CL Brener)) (UniProt Q4DSP6)"
  class.name: 1.0
- compound: "Cn1nc(C2CCCN(Cc3ccsc3)C2)c2nccnc21 (stereo not drawn)"
  target.desc: "Tyrosyl-tRNA synthetase, putative (Trypanosoma cruzi (strain CL Brener)) (UniProt Q4DSP6)"
  class.name: 1.0
- compound: "NC(=O)C1CCN(CCc2ccc(NC(=O)C3CCC3)cc2)CC1"
  target.desc: "Tyrosyl-tRNA synthetase, putative (Trypanosoma cruzi (strain CL Brener)) (UniProt Q4DSP6)"
  class.name: 0.0
- compound: "Cc1ncsc1C(=O)NCCn1nc(C2CCNC2)c2cccnc21 (stereo not drawn)"
  target.desc: "Tyrosyl-tRNA synthetase, putative (Trypanosoma cruzi (strain CL Brener)) (UniProt Q4DSP6)"
  class.name: 1.0
